test system: MALME-3M melanoma; assay: NCI tumour cell line growth inhibition, 48 h; in the data active = GI50 below about 0.43 µM; inactive = the rest
Classes used: active, inactive

| compound | class |
| --- | --- |
| Cc1cc(C)c(-c2c(N)cc(Br)cc2Br)c(N)c1 | inactive |
| CSc1nc2c(c(=O)n1C)CN(C1CCCCC1)C(=O)C(c1ccccc1)N2 (stereo not given) | inactive |
| COc1ccc([C@@]23Oc4cc(OC)cc(OC)c4[C@]2(O)[C@H](O)[C@H](C(N)=O)[C@H]3c2ccccc2)cc1 | active |
| O=[N+]([O-])c1cc([N+](=O)[O-])c(Nn2c3ccccc3c3ccccc32)c([N+](=O)[O-])c1 | active |
| COc1cc2c(c(OC)c1OC)-c1ccc(SC)c(=O)cc1[C@@H](O)CC2 | active |

---

test system: UO-31 renal; assay: NCI tumour cell line growth inhibition, 48 h
Below, each of the compounds is paired with its reported TGI value.
measured.quantity: TGI (µM)

| compound | target.or.test.system | unit.name | censor.symbol | reported |
| --- | --- | --- | --- | --- |
| O=C(Nc1ccc(Cl)cc1Cl)OC(Cn1cncn1)c1ccc(Cl)cc1Cl (stereo not drawn) | UO-31 renal | µM | = | 26 |
| CC(C)C(OC(=O)c1ccc(NCC2=CC(=O)C=CC2=O)cc1)C(C)C | UO-31 renal | µM | = | 4.74 |
| CCCCCCCCCOCC(COP(=O)([O-])OCC[N+](C)(C)C)OC (stereo not drawn) | UO-31 renal | µM | > | 100 |
| CCN(Cc1cccc(Cl)c1)c1ccc(CO)c(Cl)c1 | UO-31 renal | µM | = | 17.6 |
| CO[C@H]1CC(O[C@@H]2/C(C)=C/C[C@@H]3C[C@@H](C[C@]4(CC[C@H](C)[C@@H](C5CCCCC5)O4)O3)OC(=O)[C@@H]3C=C(C)/C(=N/O)[C@H]4OC/C(=C\C=C\[C@@H]2C)[C@]43O)O[C@@H](C)C1O (stereo partly drawn) | UO-31 renal | µM | = | 1.98 |
| C/C(=C(\c1ccc(OCCN2CCCCCC2)cc1)c1ccc(OC(=O)c2ccccc2)cc1)c1ccc(Cl)cc1 | UO-31 renal | µM | = | 6.17 |
| O=C(c1ccc(Cl)cc1)C(O)c1ccc(Cl)cc1 (stereo not drawn) | UO-31 renal | µM | > | 100 |
| O=C(N/N=C/c1cc(Br)cc(Br)c1[O-])c1ccccc1O.O=C(N/N=C/c1cc(Br)cc(Br)c1[O-])c1ccccc1O.[Zn+2] | UO-31 renal | µM | = | 10.6 |

---

tested on: OVCAR-8 ovarian; assay: NCI tumour cell line growth inhibition, 48 h

| molecule | TGI |
| --- | --- |
| CSc1nc2c(c(=O)n1C)N=C(c1ccc([N+](=O)[O-])cc1)CC(c1ccccc1)N2 (centres undefined) | > 100 µM |
| O=C(/C=C/c1ccccc1)Nc1ccccc1SCCCCl | > 69.8 µM |
| CN(/N=C\c1ccnc2ccccc12)c1ccc([N+](=O)[O-])cc1 | > 100 µM |
| CC(=O)[C@H]1CCC2[C@@H]3CC=C4C[C@@H]([O-])CC[C@]4(C)C3CC[C@@]21C.CC(=O)[C@H]1CCC2[C@@H]3CC=C4C[C@@H]([O-])CC[C@]4(C)C3CC[C@@]21C.CC(=O)[CH-]C(=O)c1ccccc1.CC(=O)[CH-]C(=O)c1ccccc1.Cl.[Ti+4] (some centres undefined) | 79.2 µM |

---

Listed below: TGI values for each entry.
tested on: CAKI-1 renal; test: NCI tumour cell line growth inhibition, 48 h

| compound | censor.symbol | TGI, µM |
| --- | --- | --- |
| CSc1ccc(Nc2cc(=O)[nH]c(=O)[nH]2)cc1 | > | 100 |
| COc1ccc(/C=C2/SC(Nc3nc(-c4nc(NC5=NC(=O)/C(=C\c6ccc(OC)cc6)S5)sc4C)c(C)s3)=NC2=O)cc1 | = | 3.16 |
| CO[C@H]1CC(O[C@@H]2/C(C)=C/C[C@@H]3C[C@@H](C[C@]4(CC[C@H](C)[C@@H](C5CCCCC5)O4)O3)OC(=O)[C@@H]3C=C(C)/C(=N/O)[C@H]4OC/C(=C\C=C\[C@@H]2C)[C@]43O)O[C@@H](C)C1O (stereo partly drawn) | = | 3.32 |
| C=CCC(N[C@@H](CO)c1ccccc1)c1cn(C(=O)OCC)c2ccccc12 (stereo partly drawn) | = | 53.5 |
| NC1CCC(N(CC(=O)O)CC(=O)O)C(N(CC(=O)O)CC(=O)O)C1 (stereo not drawn) | > | 100 |
| COc1ccc([C@@]23Oc4cc(OC)cc(OC)c4[C@]2(O)[C@H](O)[C@H](C(N)=O)[C@H]3c2ccccc2)cc1 | = | 0.0838 |
| CCOP(=O)(OCC)C(NC(=O)C(C(F)(F)F)C(F)(F)F)c1ccccc1 (stereo not drawn) | > | 100 |
| Cc1ccc2c(=O)cc(-c3ccc(C)s3)[nH]c2n1 | > | 100 |
| CCCCCCCC/C=C/CCCCCCCC1=NC(C)(C)CN1CCO | = | 3.03 |
| CCOc1ccn(-c2ccc(F)cc2)c(=O)c1C(=O)Nc1ccc(Oc2ccnc(N)c2Cl)c(F)c1 | = | 56.4 |
| Nc1nc(/C=C\c2ccccc2)nc(N2CCN(c3ccccc3)CC2)n1 | = | 43.6 |
| Cn1c2c(c3c(Cl)nncc31)Cc1ccccc1-2 | = | 67.2 |
| COc1nc(N)c(NC(C)=O)c(=O)n1C | > | 100 |
| CC(C)(Cl)C(Br)CCC(Br)(CCl)C(Cl)CBr (stereo not drawn) | > | 10 |
| CNS(=O)(=O)NNS(=O)(=O)c1ccc(OC)cc1 | > | 100 |
| CC(=O)NCC1OC2COC(c3ccccc3)OC2C(NC(=O)c2ccccc2)C1OC(=O)c1ccccc1 (stereo not drawn) | > | 100 |
| Clc1cccc(C2N3CCCCC3[C@@H]3c4[nH]c5ccccc5c4CCN23)c1 (stereo partly drawn) | > | 100 |
| Nc1nc(NCCCO)cc(=O)[nH]1 | > | 100 |

---

test system: MCF7 breast; test: NCI tumour cell line growth inhibition, 48 h
This listing pairs molecules with measured TGI.
measured.quantity: TGI

| molecule | target.or.test.system | reported |
| --- | --- | --- |
| O=[N+]([O-])c1ccc(-n2nc3ccc4c(no[n+]4[O-])c3n2)cc1 | MCF7 breast | > 100 µM |
| CCOC(=O)NC(Nc1ccc(F)cc1)(C(=O)OCC)C(F)(F)F (stereo not drawn) | MCF7 breast | > 100 µM |
| COC1CC(OC2C(C)OC(OC3C(C)OC(OC4C(C)OC(O[C@H]5CC[C@@]6(C)C(=CC[C@]7(O)[C@@H]6C[C@@H](OC(C)=O)[C@@]6(C)[C@]7(O)CC[C@@]6(O)C(C)=O)C5)CC4OC)CC3OC)CC2OC)OC(C)C1O (stereo partly drawn) | MCF7 breast | > 25 µM |
| CC(C)COc1nc2c(c(=O)n(C)c(=O)n2C)n1C | MCF7 breast | > 100 µM |
| COc1ccc([C@@]23Oc4cc(OC)cc(OC)c4[C@]2(O)[C@H](O)[C@H](C(N)=O)[C@H]3c2ccccc2)cc1 | MCF7 breast | 0.112 µM |
| CC(=O)OCC(=O)OC[C@H](OCc1ccccc1)[C@@H]1[C@H](OC(C)=O)C(=O)N1Cc1ccccc1 | MCF7 breast | > 100 µM |
| COc1ccc(N=NC(=O)NC(CC(C)C)C(=O)NCC(=O)O)cc1 (stereo not drawn) | MCF7 breast | > 100 µM |
| O=C(NNC(=S)NC1CCCCC1)C12CC3CC(CC(C3)C1)C2 | MCF7 breast | > 100 µM |

---

test system: UACC-257 melanoma; assay: NCI tumour cell line growth inhibition, 48 h
The entries below come with measured TGI values attached.
measured.quantity: TGI

| molecule | target.or.test.system | reported |
| --- | --- | --- |
| CCC1(c2ccc(N3C(=O)c4cc(OC)c(OC)cc4C3=O)cc2)CCC(=O)NC1=O (configuration not stated) | UACC-257 melanoma | > 10 µM |
| O=C1CCc2ccc(O)c(c2)Oc2ccc(cc2)C(Sc2ccccc2)CCO1 (configuration not stated) | UACC-257 melanoma | 32.6 µM |
| Cc1cc(=O)oc2cc(OCC(O)COC(C)C)ccc12 (configuration not stated) | UACC-257 melanoma | > 100 µM |
| COC(=O)[C@@]12CC(C(C)C)[C@H]3CC(C(=O)C=C1OC)[C@H]32 (some centres not stated) | UACC-257 melanoma | > 100 µM |
| CC1(C)CCCC(C)(C2CCC3(C)C2C(O)CC2C4(C)CCC(O)C(C)(C)C4CCC23C)O1 (configuration not stated) | UACC-257 melanoma | > 100 µM |
| Cc1cc(Nc2cc(N3CCN(C)CC3)nc(/C=C/c3ccccc3)n2)n[nH]1 | UACC-257 melanoma | > 5.32 µM |
| COC(=O)c1cc(NC(=O)Cc2c[nH]c3ccccc23)cn1C | UACC-257 melanoma | > 100 µM |
| CCNC(=O)Oc1ccc(/C(=C(/C)Cc2ccc(OC)cc2)c2ccc(OCCN(CC)CC)cc2)cc1 | UACC-257 melanoma | 3.42 µM |
| Cc1ccc2c(=O)cc(-c3ccc(C)s3)[nH]c2n1 | UACC-257 melanoma | > 100 µM |
| CCN(CC)CCN(C)c1ccc(CO)c2c1C(=O)c1ccccc1S2=O (configuration not stated) | UACC-257 melanoma | 3.55 µM |
| CC1NC(=O)C2=C1C(=O)NC(=O)C2 (configuration not stated) | UACC-257 melanoma | > 100 µM |
| CC(=O)NC(NCCN)(c1ccccc1)c1ccccc1 | UACC-257 melanoma | > 100 µM |
| CCc1ccc(COC(=O)C2=C(C)NC(C)=C(C(=O)OCc3ccc(CC)cn3)C2C2=COCCO2)nc1 | UACC-257 melanoma | 41.5 µM |
| Nc1ncnc2c1ncn2C1CCC(CP(=O)(O)O)C1 (configuration not stated) | UACC-257 melanoma | > 100 µM |
| COc1cc(/C=N/N=C(\N)NO)c(Cl)cc1O | UACC-257 melanoma | > 100 µM |
| O=C1Nc2nccnc2C(=O)N2CCC[C@@H]12 | UACC-257 melanoma | > 100 µM |
| Cc1c(N=C/C=C/c2ccccc2)c(=O)n(-c2ccccc2)n1C | UACC-257 melanoma | > 100 µM |
| Clc1ccccc1-c1nnc2c(Cc3ccccc3)nc3ccccc3n12 | UACC-257 melanoma | > 100 µM |
| COC(=O)c1oc2c(C(=O)/C=C/c3ccc(OC)cc3)c(OCCN(C)C)ccc2c1C | UACC-257 melanoma | 29.2 µM |
| CCOC(=O)NC(Nc1ccc(F)cc1)(C(=O)OCC)C(F)(F)F (configuration not stated) | UACC-257 melanoma | > 100 µM |
| CN1CCN(Cc2ccc(NC(=O)c3cncc(C#Cc4cnc(N)c5cccnc45)c3)cc2C(F)(F)F)CC1 | UACC-257 melanoma | > 50 µM |
| Cc1cc(C)c(-c2c(N)cc(Br)cc2Br)c(N)c1 | UACC-257 melanoma | 22.1 µM |
